Here the recorded metabolised at 0.5 h is given for each entry.
# TEST METHOD NOTES: Metabolic stability in human liver microsomes assessed as compound hydrolysis incubated for 30 mins by LC-MS/MS analysis
# Assay type: ADME, Microsome
# CONDITION: read-out: Drug degradation
I only need the number, in %, no unit after it.

>  <COMPOUND>
CC#C[C@@H](CC(=O)O)c1ccc(OCc2ccc(CN3CCC4(C=Cc5ccccc54)CC3)cc2)cc1 [LY2881835]

>  <RESULT UNITS>
%

>  <metabolised at 0.5 h>
38

$$$$
>  <COMPOUND>
CC#C[C@@H](CC(=O)O)c1ccc(OCc2ccc(CN3CCC4(CCc5ccccc54)CC3)s2)cc1

>  <RESULT UNITS>
%

>  <metabolised at 0.5 h>
44

$$$$

Shifting focus to the compound that follows.
Input line: So what's the measured metabolised at 0.5 h for this one? "CC#C[C@@H](CC(=O)O)c1ccc(OCc2ccc(CN3CCCc4cccc(OC)c43)s2)cc1"
Output line: 24

====

# TARGET UNDER TEST: Free fatty acid receptor 1 (Homo sapiens)
# Sequence (O14842 whole entry, the tested form may be a part): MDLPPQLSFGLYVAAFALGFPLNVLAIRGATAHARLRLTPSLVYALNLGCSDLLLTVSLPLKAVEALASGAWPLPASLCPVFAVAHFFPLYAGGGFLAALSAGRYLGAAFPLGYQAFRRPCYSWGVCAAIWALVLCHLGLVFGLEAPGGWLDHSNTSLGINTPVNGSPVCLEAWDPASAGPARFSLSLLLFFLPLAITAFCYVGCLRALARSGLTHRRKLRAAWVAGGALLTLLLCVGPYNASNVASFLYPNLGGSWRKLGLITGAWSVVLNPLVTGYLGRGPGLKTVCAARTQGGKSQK
# TEST METHOD NOTES: Agonist activity at human recombinant full-length Prolink-tagged GPR40 fused with EA-tagged beta-arrestin expressed in human HEK293 cells assessed as induction of beta-arrestin recruitment measured after 90 mins by beta-galactosidase based PathHunter assay
# Format: cell-based
# Lookup of reported pEC50 keyed by entry
Would you please state pEC50, meaning minus log10 of the concentration in mol/L, as a bare number?

Use the examples below as a reference point.
>  <SMI>
CC#C[C@@H](CC(=O)O)c1ccc(OCc2ccc(CN3CCC4(C=Cc5ccccc54)CC3)c(OC)c2)cc1

>  <TARGET UNDER TEST>
Free fatty acid receptor 1 (Homo sapiens)

>  <pEC50>
8.00

$$$$
>  <SMI>
CC#C[C@@H](CC(=O)O)c1ccc(OCc2ccc(CN3CCC4(C=Cc5ccccc54)CC3)o2)cc1

>  <TARGET UNDER TEST>
Free fatty acid receptor 1 (Homo sapiens)

>  <pEC50>
7.21

$$$$
>  <SMI>
CC#C[C@@H](CC(=O)O)c1ccc(OCc2ccc(CN3CCC4(CC3)CN(C)c3ccc(C(F)(F)F)cc34)cc2)cc1

>  <TARGET UNDER TEST>
Free fatty acid receptor 1 (Homo sapiens)

>  <pEC50>
8.54

$$$$
>  <SMI>
CC#C[C@H](CC(=O)O)c1ccc(OCc2ccc(CN3CCC4(C=Cc5ccccc54)CC3)cc2)cc1

>  <TARGET UNDER TEST>
Free fatty acid receptor 1 (Homo sapiens)

>  <pEC50>
6.27

$$$$
>  <SMI>
CC#C[C@@H](CC(=O)O)c1ccc(OCc2ccc(CN3CCC4(CCc5ccccc54)CC3)s2)cc1

>  <TARGET UNDER TEST>
Free fatty acid receptor 1 (Homo sapiens)

>  <pEC50>
8.10

$$$$

Input line: # get_value(readout='pEC50', item= "CC#C[C@@H](CC(=O)O)c1ccc(OCc2ccc(CN3CCC4(C=Cc5ccccc54)CC3)c(Cl)c2)cc1" )
Output line: 8.48

Input line: Would you kindly share the measured pEC50 for "CC#C[C@@H](CC(=O)O)c1ccc(OCc2ccc(CN3CCC4(C=Cc5ccccc54)CC3)c(C)c2)cc1" ?
Output line: 8.77

Input line: Query: pEC50; subject: "CC#C[C@@H](CC(=O)O)c1ccc(OCc2cnc(CN3CCC4(C=Cc5ccccc54)CC3)s2)cc1"
Output line: 6.77

Input line: What measured pEC50 goes with "CC#C[C@@H](CC(=O)O)c1ccc(OCc2ccc(CN3CCC4(CC3)CN(c3ccccc3)c3ccccc34)cc2)cc1" ?
Output line: 8.82

Input line: Value lookup for pEC50; key = "CC#C[C@@H](CC(=O)O)c1ccc(OCc2sc(CN3CCC4(C=Cc5ccccc54)CC3)nc2C)cc1"
Output line: 6.28

Input line: Report pEC50 for "CC#C[C@@H](CC(=O)O)c1ccc(OCc2nc(C)c(CN3CCC4(C=Cc5ccccc54)CC3)s2)cc1" please.
Output line: 7.24

Input line: Need pEC50 of "CC#C[C@@H](CC(=O)O)c1ccc(OCc2ccc(CN3CCC4(C=Cc5ccccc54)CC3)cc2)cc1F" , thanks.
Output line: 7.44

====

# TEST METHOD NOTES: Apparent clearance in type 2 diabetic mellitus human at 1080 mg, po administered as single dose
# Format: ADME, organism-based
# CONDITION: in vivo
READOUT NAME: CL/F

Input line: // CL/F lookup, key: "CC#C[C@@H](CC(=O)O)c1ccc(OCc2ccc(CN3CCCc4cccc(OC)c43)s2)cc1"
Output line: 185 mL/min

====

# TARGET UNDER TEST: UniProt:O14842
# TEST METHOD NOTES: Agonist activity at human recombinant full length GPR40 overexpressed in human HEK293 cells assessed as increase in intracellular calcium level measured over 3 mins by calcium 4 dye based FLIPR assay relative to 100 uM linoleic acid
# Format: functional, cell-based
# CONDITION: filed as agonist
Label Yes when Emax is strictly below 60%; at or above that, label No.

Use the examples below as a reference point.
>  <SMI>
CC#C[C@@H](CC(=O)O)c1ccc(OCc2ccc(CN3CCC4(CC3)CC(=O)c3ccccc3O4)cc2)cc1

>  <GROUP>
Yes

$$$$
>  <SMI>
O=C(O)CCc1ccc(OCc2ccc(CN3CCC4(C=Cc5ccccc54)CC3)cc2)cc1F

>  <GROUP>
No

$$$$
>  <SMI>
CC#C[C@@H](CC(=O)O)c1ccc(OCc2cc(C)c(CN3CCC4(C=Cc5ccccc54)CC3)s2)cc1

>  <GROUP>
No

$$$$
>  <SMI>
CC#C[C@@H](CC(=O)O)c1ccc(OCc2ccc(CN3CCC4(CC3)CN(C)c3c(Cl)cccc34)cc2)cc1

>  <GROUP>
Yes

$$$$
>  <SMI>
CC#C[C@@H](CC(=O)O)c1ccc(OCc2ccc(CN3CCC4(CC3)CN(c3ccccc3)c3ccccc34)cc2)cc1

>  <GROUP>
Yes

$$$$

Input line: Hi there! Is Emax for "CC#C[C@@H](CC(=O)O)c1ccc(OCc2ccc(CN3CCC4(C=Cc5ccccc54)CC3)c(Cl)c2)cc1" below 60%, do you know?
Output line: Yes

====

# TEST METHOD NOTES: Half-life in rat at 3 mg/kg, po or 1 mg/kg, iv by LC/MS/MS analysis
# Format: ADME, organism-based
# CONDITION: in vivo
READOUT NAME: half-life (h)
Respond with the bare value in h.

>  <SMI>
CC#C[C@@H](CC(=O)O)c1ccc(OCc2ccc(CN3CCC4(CCc5ccccc54)CC3)s2)cc1

>  <READOUT NAME>
half-life

>  <NUMERIC READOUT>
1.6

$$$$

Moving on to the next compound.
Input line: # query: half-life of entry "CC#C[C@@H](CC(=O)O)c1ccc(OCc2ccc(CN3CCCc4cccc(OC)c43)s2)cc1"
Output line: 5.6

====

# TEST METHOD NOTES: Cmax in mouse plasma at 3 mg/kg, po or 1 mg/kg, iv by LC/MS/MS analysis
# Format: ADME, organism-based
# Parameters: dose 3 mg/kg
READOUT NAME: Cmax (ng/mL)
Kindly provide the numeric value in ng/mL only, without the unit symbol.

>  <SMI>
CC#C[C@@H](CC(=O)O)c1ccc(OCc2ccc(CN3CCC4(CCc5ccccc54)CC3)s2)cc1

>  <NUMERIC READOUT>
184

$$$$

Now for the compound whose Cmax we want.
Input line: Need Cmax, item "CC#C[C@@H](CC(=O)O)c1ccc(OCc2ccc(CN3CCCc4cccc(OC)c43)s2)cc1"
Output line: 552

====

# TEST METHOD NOTES: Oral bioavailability in dog at 3 mg/kg by LC/MS/MS analysis
# Type: ADME, organism-based, Canis lupus familiaris
# CONDITION: in vivo
READOUT NAME: bioavailability (%)
Value expressed in %; do not type the unit.

>  <SMI>
CC#C[C@@H](CC(=O)O)c1ccc(OCc2ccc(CN3CCC4(CCc5ccccc54)CC3)s2)cc1

>  <bioavailability, %>
17

$$$$

Input line: Query (compound): "CC#C[C@@H](CC(=O)O)c1ccc(OCc2ccc(CN3CCCc4cccc(OC)c43)s2)cc1" ; field requested: bioavailability
Output line: 55

====

# TEST METHOD NOTES: AUC in hyperglycemic Balb/c mouse plasma at 3.67 mg/kg measured upto 60 mins
# Format: ADME, organism-based
# Design: dose 3.67 mg/kg, time <=60
READOUT NAME: AUC at 1 h (ng·h/mL)
Just the number please, in ng·h/mL, no unit attached.

Input line: Requested field: AUC at 1 h. Item: "CC#C[C@@H](CC(=O)O)c1ccc(OCc2ccc(CN3CCC4(C=Cc5ccccc54)CC3)s2)cc1"
Output line: 1060
